- Assayed system: Sodium-dependent serotonin transporter (Rattus norvegicus)
- Assay comment: Specific binding in rat hypothalamus at 60 min postinjection in vivo
- Format: functional, organism-based
- Condition label: tested as the 18F-labelled form
Measurement label: Specific binding (%ID/g)

Would you please look over these solved cases?
mol=CN(C)Cc1ccccc1Sc1ccc(CF)cc1N measurement_label="Specific binding" unit_tag=%ID/g measured_number=4.56
mol=CN(C)Cc1ccccc1Sc1ccc(F)cc1N measurement_label="Specific binding" unit_tag=%ID/g measured_number=4.09

[P] CN(C)Cc1ccccc1Sc1ccc(CCF)cc1N
[Q] CN(C)Cc1ccccc1Sc1ccc(CCCF)cc1N
**Q:** Which entry shows the lesser value of Specific binding here, P or Q ? Output the label that corresponds to your choice.
**A:** Q
(Q: 0.85 %ID/g, P: 3.35 %ID/g)

----------
- Assayed system: Sodium-dependent serotonin transporter (Rattus norvegicus) (UniProt P31652)
- Sequence (P31652 whole entry): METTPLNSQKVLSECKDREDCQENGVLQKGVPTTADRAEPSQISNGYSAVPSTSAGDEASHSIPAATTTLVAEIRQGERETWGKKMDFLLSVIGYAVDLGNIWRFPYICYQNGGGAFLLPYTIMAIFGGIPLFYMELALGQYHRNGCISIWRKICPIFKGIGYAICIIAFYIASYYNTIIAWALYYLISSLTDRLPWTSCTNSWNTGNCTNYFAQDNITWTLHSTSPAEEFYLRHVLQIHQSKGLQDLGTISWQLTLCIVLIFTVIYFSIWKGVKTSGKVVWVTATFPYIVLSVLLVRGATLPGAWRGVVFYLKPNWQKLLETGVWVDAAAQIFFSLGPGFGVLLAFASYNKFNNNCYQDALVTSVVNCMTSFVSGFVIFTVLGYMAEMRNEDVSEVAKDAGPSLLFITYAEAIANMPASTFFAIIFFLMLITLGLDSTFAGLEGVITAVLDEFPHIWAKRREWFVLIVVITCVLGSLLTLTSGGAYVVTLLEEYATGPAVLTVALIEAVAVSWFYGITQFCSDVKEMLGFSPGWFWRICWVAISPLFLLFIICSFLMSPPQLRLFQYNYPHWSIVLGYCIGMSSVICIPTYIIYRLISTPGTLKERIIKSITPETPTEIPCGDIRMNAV
- Assay comment: Specific binding of [18F]AFA in rat frontal cortex after GBR-12935 treatment; n=3
- Type: functional, tissue-based
- Condition label: tested as the 18F-labelled form
Measurement label: Specific binding (%ID/g)

mol=CN(C)Cc1ccccc1Sc1ccc(F)cc1N measured_number=2.81

[1] CN(C)Cc1ccccc1Sc1ccc(CF)cc1N
[2] CN(C)Cc1ccccc1Sc1ccc(CCF)cc1N
[3] CN(C)Cc1ccccc1Sc1ccc(CCCF)cc1N
**Q:** Rank ascending by Specific binding. Provide the labels, sequenced as the question asks.
**A:** 3, 2, 1
(3: 0.64 %ID/g, 2: 1.98 %ID/g, 1: 3.83 %ID/g)

----------
- Assayed system: Sodium-dependent serotonin transporter (Homo sapiens, UniProt P31645)
- Sequence (P31645 whole entry): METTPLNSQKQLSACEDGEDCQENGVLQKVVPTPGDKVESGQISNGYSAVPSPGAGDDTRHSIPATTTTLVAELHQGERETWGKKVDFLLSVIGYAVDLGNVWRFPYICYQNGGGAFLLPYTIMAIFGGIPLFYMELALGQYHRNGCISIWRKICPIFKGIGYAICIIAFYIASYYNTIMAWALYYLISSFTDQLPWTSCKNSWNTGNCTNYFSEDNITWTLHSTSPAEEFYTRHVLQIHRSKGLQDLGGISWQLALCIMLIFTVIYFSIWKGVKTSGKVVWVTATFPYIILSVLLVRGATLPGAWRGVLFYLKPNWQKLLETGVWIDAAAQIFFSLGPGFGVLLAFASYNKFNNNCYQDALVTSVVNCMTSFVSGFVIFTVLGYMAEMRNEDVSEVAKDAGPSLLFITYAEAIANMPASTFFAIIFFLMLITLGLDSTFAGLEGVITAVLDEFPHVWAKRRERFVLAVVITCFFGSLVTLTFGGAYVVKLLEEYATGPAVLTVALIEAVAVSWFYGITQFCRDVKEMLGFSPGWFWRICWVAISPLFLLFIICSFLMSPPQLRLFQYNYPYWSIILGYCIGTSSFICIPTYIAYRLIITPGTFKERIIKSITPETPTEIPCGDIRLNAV
pKi: −log10 of the molar value.
Measurement label: pKi

Would you please look over these solved cases?
compound=Cc1ccc(Sc2ccccc2CNCCF)c(N)c1 measurement_label=pKi measured_number=7.15
compound="CN(C)Cc1ccccc1Sc1ccc(C#N)cc1N [DASB]" measurement_label=pKi measured_number=8.95

[P] CN(C)Cc1ccccc1Sc1ccc(I)cc1N
[Q] CN(C)Cc1ccccc1Sc1ccc(CCF)cc1N
**Q:** Which entry shows the lesser value of pKi here, P or Q ? Output the label that corresponds to your choice.
**A:** Q
(Q: 8.74, P: 8.97)

----------
- Assayed system: Sodium-dependent serotonin transporter (Rattus norvegicus) (UniProt P31652)
- Assay comment: Specific binding of [18F]AFA in rat striatum after GBR-12935 treatment; n=3
- Format: functional, tissue-based
- Condition label: tested as the 18F-labelled form
Measurement label: Specific binding (%ID/g)

mol=CN(C)Cc1ccccc1Sc1ccc(F)cc1N assayed_system="Sodium-dependent serotonin transporter (Rattus norvegicus) (UniProt P31652)" measurement_label="Specific binding" measured_number=2.56

[A] CN(C)Cc1ccccc1Sc1ccc(CCF)cc1N
[B] CN(C)Cc1ccccc1Sc1ccc(CCCF)cc1N
[C] CN(C)Cc1ccccc1Sc1ccc(CF)cc1N
**Q:** # desc sort on Specific binding across 3 compounds Provide the labels, sequenced as the question asks.
**A:** C, A, B

----------
- Assayed system: Sodium-dependent serotonin transporter (Rattus norvegicus)
- Assay comment: Specific binding of [18F]AFA in rat hippocampus after citalopram treatment; n=3
- Format: functional, tissue-based
- Condition label: tested as the 18F-labelled form
Measurement label: Specific binding (%ID/g)

Would you please look over these solved cases?
mol=CN(C)Cc1ccccc1Sc1ccc(F)cc1N unit_tag=%ID/g measured_number=0.81
mol=CN(C)Cc1ccccc1Sc1ccc(CCF)cc1N unit_tag=%ID/g measured_number=0.54

[A] CN(C)Cc1ccccc1Sc1ccc(CF)cc1N
[B] CN(C)Cc1ccccc1Sc1ccc(CCCF)cc1N
**Q:** Which entry shows the lesser value of Specific binding here, A or B ? Output the label that corresponds to your choice.
**A:** B
(B: 0.32 %ID/g, A: 0.67 %ID/g)
